Biological target: core-bradavidin (Bradyrhizobium japonicum)
Test: ITC; core-bradavidin, avidin, streptavidin or rhizavidin in the cell, Brad-tag in the syringe, 40°C, 50 mM sodium phosphate pH 7.0, 100 mM NaCl; n is the stoichiometry per subunit
reportedMetric: pKd
The scale used: pKd is minus the common logarithm of the concentration in molar units.

input: Identify measured pKd associated with SEKLSNTK [Brad-tag (synthetic peptide SEKLSNTK)]
output: 4.59
